assay: Cell Viability - Jurkat (AID 426);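 note: potency is the fitted concentration of half-maximal effect; cells exposed to compound for 40 hours at 37 °C before ATP read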
test-parameters: qHTS
Results filed as inconclusive are left out. The source made the active and inactive calls.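 Rule for the calls: active = dose-dependent loss of cell ATP signal giving a full or clear fitted curve, ranked by lower potency value; inconclusive = weak partial curve or response only at the top dose; inactive = no loss of viability signal.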
Outcome codes: true for active, false for inactive

compound | group-label
CCCCCCCCOc1ccc(C(=O)O)cc1 | false
C=CC(=O)OCCCCCCOC(=O)C=C | true
CN(C)c1ccc(Cc2ccc(N(C)C)cc2)cc1 | false
CC(CCC(=O)O)(c1ccc(O)cc1)c1ccc(O)cc1 | false
Cc1ccc(C(=O)O)cc1[N+](=O)[O-] | false
CC(=O)Nc1cccc(C)c1 | false
O=[N+]([O-])c1ccc(F)cc1F | false
CC(=O)OCc1ccc2c(c1)OCO2 | false
Oc1ccc2c(c1)OCO2 | false
OC1CCCCC1 | false
CCCCOC(=O)COc1ccc(Cl)cc1Cl | false
C=CC1CO1 (centres undefined) | false
Nc1ccc2c(c1)C(=O)c1ccccc1C2=O | false
C=C1CC[C@H](O)C/C1=C/C=C1\CCC[C@]2(C)[C@@H]([C@H](C)CCCC(C)C)CC[C@@H]12 | true

----------
assay: S16 Schwann cell PMP22 intronic element firefly luciferase assay (AID 624032); note: nearly all actives have a fitted effect of over 30% in size
test-parameters: S16 rat Schwann cells, PMP22 element FLuc, 24 h; series mostly up to 57.5 µM
Results filed as inconclusive are left out. The source made the active and inactive calls. Calls follow the shape of the dose curve; as a rule, active = well fitted inhibition curve with a large enough effect; inconclusive = small, poorly fitted or top-dose-only effect; inactive = no such curve, though single readings can be large or run the other way.
Labels: Y = active, N = inactive

compound-structure | group-label
CO/N=C(\C(=O)N[C@@H]1C(=O)N2C(C(=O)[O-])=C(C[N+]3(C)CCCC3)CS[C@@H]12)c1csc(N)n1 | N
OC[C@H](S)CS | Y
O=C(O)[C@@H](O)[C@@H](O)[C@H](O)C(=O)CO | N
COc1cc2nc(N(C)CCCNC(=O)[C@@H]3CCCO3)nc(N)c2cc1OC | N
N[C@@H](Cc1ccccc1)C(=O)O | N
N[C@H](COP(=O)(O)O)C(=O)O | N

----------
assay: Stat Signaling Pathway (AID 446);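 note: ME-180 cervical cancer cells given 40 pM IL-6 alongside compound; SIE-controlled beta-lactamase reporter measured as 460/530 nm FRET emission ratio; % is set by controls: 0 for no effect and ±100 for the full control effect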
test-parameters: ME-180 SIE beta-lactamase reporter, IL-6 stimulated, 5 h; at 7.69 µM (top of the series) unless noted
Records with an inconclusive call do not appear.

compound-structure | unit-of-measure | activity, negative = inhibition
CC(C)(CCC(C)(C)c1ccccc1)c1ccccc1 | % | -2.84
CN[C@@H]1NC(=O)c2ccccc2N1Cc1ccc(F)cc1 | % | 4.09
C[C@H](CC(=O)O)C(C(=O)O)C(=O)O | % | -3.1
Clc1cccc(Cl)c1C(Nc1nncs1)Nc1nncs1 | % | -3.83
O=S(=O)(c1ccccc1)N1CN2CN(C1)CN(S(=O)(=O)c1ccccc1)C2 | % | -0.275
CCOC(=O)C(C)(C)[C@H](O)C(C)C | % | -3.53

----------
assay: AP1 Signaling Pathway (AID 357);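 note: ME-180 reporter cells stimulated with EGF at its EC50 level; % is set by controls: 0 for no effect and ±100 for the full control effect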
test-parameters: ME-180 (cervical carcinoma) AP-1-bla reporter, EGF-induced, beta-lactamase ratio, 5 h; at 7.69 µM (top of the series) unless noted
Records with an inconclusive call do not appear. The source made the active and inactive calls. Calls follow the shape of the dose curve; as a rule, active = well fitted curve in either direction with a large enough effect (not every such curve was filed as active); inconclusive = small, poorly fitted or top-dose-only effect, or another doubt; inactive = flat fitted curve, though single readings scatter.

compound-structure | activity change, negative = inhibition
N#[N+]c1ccc(Nc2ccccc2)cc1 | -0.339% (inactive)
CC(C)NC1(C(N)=O)CCN(Cc2ccccc2)CC1 | 0.245% (inactive)
O=C(O)CCCC[C@H]1CCSS1 | -4.68% [at 38 µM] (inactive)
O=C(O)c1cc(N=Nc2ccc([N+](=O)[O-])cc2)ccc1O | -28% (inactive)
O=C(O)CCCSc1ccccc1 | -2.81% (inactive)
COC(=O)[C@@H]1[C@H]2C[C@H]3c4[nH]c5cc(OC)ccc5c4CCN3C[C@@H]2C[C@@H](OC(=O)c2cc(OC)c(OC)c(OC)c2)[C@@H]1OC | -23.7% [at 38 µM] (inactive)

----------
system-tested: Muscarinic acetylcholine receptor M1 (Rattus norvegicus) (UniProt P08482)
Sequence (P08482 whole entry, looked up): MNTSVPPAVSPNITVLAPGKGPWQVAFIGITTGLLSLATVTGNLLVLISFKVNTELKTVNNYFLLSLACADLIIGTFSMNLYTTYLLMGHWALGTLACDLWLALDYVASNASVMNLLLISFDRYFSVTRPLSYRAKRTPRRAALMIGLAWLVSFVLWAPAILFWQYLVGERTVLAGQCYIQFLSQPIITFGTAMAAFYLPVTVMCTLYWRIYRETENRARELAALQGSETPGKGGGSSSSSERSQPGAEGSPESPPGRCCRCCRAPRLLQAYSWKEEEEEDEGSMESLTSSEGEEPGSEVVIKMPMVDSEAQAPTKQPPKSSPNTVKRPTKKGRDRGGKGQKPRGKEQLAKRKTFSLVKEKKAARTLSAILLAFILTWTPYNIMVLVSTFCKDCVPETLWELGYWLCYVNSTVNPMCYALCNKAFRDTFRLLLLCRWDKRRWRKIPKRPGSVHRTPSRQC
assay: qHTS Assay for Antagonists of Acetylcholine Muscarinic M1 Receptor: Measurement of IP-One Response (AID 944); note: nearly all actives have a fitted effect of over 75% in size
test-parameters: CHO-M1 cells, IP-One HTRF, antagonist mode; series mostly up to 46.1 µM
Inconclusive results are not listed. Activity calls are given as the source filed them. Calls follow the shape of the dose curve; as a rule, active = well fitted inhibition curve with a large enough effect; inconclusive = small, poorly fitted or top-dose-only effect; inactive = no such curve, though single readings can be large or run the other way.
Possible outcomes: active, inactive

compound-structure | system-tested | group-label
CN[C@]1(C)[C@@H]2CC[C@@H](C2)C1(C)C | Muscarinic acetylcholine receptor M1 (Rattus norvegicus) (UniProt P08482) | inactive
Cc1nnc(SCC2=C(C(=O)O)N3C(=O)[C@@H](NC(=O)Cn4cnnn4)[C@@H]3SC2)s1 | Muscarinic acetylcholine receptor M1 (Rattus norvegicus) (UniProt P08482) | inactive
CC1=C(C(=O)O)N2C(=O)[C@@H](NC(=O)[C@@H](N)C3=CCC=CC3)[C@@H]2SC1 | Muscarinic acetylcholine receptor M1 (Rattus norvegicus) (UniProt P08482) | inactive
C=C(C)[C@@H]1CC=C(C(=O)O)CC1 | Muscarinic acetylcholine receptor M1 (Rattus norvegicus) (UniProt P08482) | inactive
[N-]=[N+]=Nc1ccc(C(=O)CSC[C@@H](NC(=O)CC[C@@H](N)C(=O)O)C(=O)NCC(=O)O)cc1 | Muscarinic acetylcholine receptor M1 (Rattus norvegicus) (UniProt P08482) | inactive
COc1cc([C@H](O)C(=O)O)ccc1O | Muscarinic acetylcholine receptor M1 (Rattus norvegicus) (UniProt P08482) | inactive
CN1CCc2cc(Cl)c(O)cc2[C@H](c2ccccc2)C1 | Muscarinic acetylcholine receptor M1 (Rattus norvegicus) (UniProt P08482) | inactive
O=C(O)/C=C\c1cnc[nH]1 | Muscarinic acetylcholine receptor M1 (Rattus norvegicus) (UniProt P08482) | inactive
OC[C@@H]1O[C@H](O)[C@@H](Cl)[C@H](O)[C@@H]1O | Muscarinic acetylcholine receptor M1 (Rattus norvegicus) (UniProt P08482) | inactive
CC(C)C[C@H](NC(=O)[C@@H](O)[C@@H](N)Cc1ccccc1)C(=O)O | Muscarinic acetylcholine receptor M1 (Rattus norvegicus) (UniProt P08482) | inactive
C[C@@H](Cc1ccccc1)Nc1ncnc2c1ncn2[C@@H]1O[C@@H](CO)[C@H](O)[C@@H]1O | Muscarinic acetylcholine receptor M1 (Rattus norvegicus) (UniProt P08482) | inactive
COc1cc2c(cc1O)CC[C@@H]1[C@@H]2CC[C@@]2(C)[C@H](O)CC[C@H]12 | Muscarinic acetylcholine receptor M1 (Rattus norvegicus) (UniProt P08482) | inactive
C=C[C@@]1(C)CC(=O)[C@@]2(O)[C@@]3(C)[C@H](O)CCC(C)(C)[C@@H]3[C@H](O)[C@H](OC(C)=O)[C@]2(C)O1 | Muscarinic acetylcholine receptor M1 (Rattus norvegicus) (UniProt P08482) | inactive
O=C1OC(=O)[C@@H]2[C@@H]1[C@@H]1CC[C@H]2O1 | Muscarinic acetylcholine receptor M1 (Rattus norvegicus) (UniProt P08482) | inactive
N=c1ccn2c(n1)O[C@@H]1[C@@H](O)[C@H](CO)O[C@H]12 | Muscarinic acetylcholine receptor M1 (Rattus norvegicus) (UniProt P08482) | inactive
COc1ccc(CCN(C)CCC[C@@](C#N)(c2cc(OC)c(OC)c(OC)c2)C(C)C)cc1OC | Muscarinic acetylcholine receptor M1 (Rattus norvegicus) (UniProt P08482) | inactive
C[C@@H](CN1CCC(Cc2ccccc2)CC1)[C@H](O)c1ccc(O)cc1 | Muscarinic acetylcholine receptor M1 (Rattus norvegicus) (UniProt P08482) | active
Nc1c2c(nc3ccccc13)CCC[C@H]2O | Muscarinic acetylcholine receptor M1 (Rattus norvegicus) (UniProt P08482) | inactive
O=C(O)CC[C@@H](NC(=O)c1ccccc1C(=O)O)C(=O)O | Muscarinic acetylcholine receptor M1 (Rattus norvegicus) (UniProt P08482) | inactive
Nc1ncnc2c1ncn2[C@@H]1CCCO1 | Muscarinic acetylcholine receptor M1 (Rattus norvegicus) (UniProt P08482) | inactive
CNc1ncnc2c1ncn2[C@H]1C[C@@H](OP(=O)(O)O)[C@H](COP(=O)(O)O)O1 | Muscarinic acetylcholine receptor M1 (Rattus norvegicus) (UniProt P08482) | inactive

----------
assay: NFAT Signaling Pathway (AID 444);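 note: carbachol stimulus at about its EC50 of 1 µM final; % is set by controls: 0 for no effect and ±100 for the full control effect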
test-parameters: Jurkat NFAT-bla M1, carbachol, beta-lactamase ratio, 5 h; at 7.69 µM (top of the series) unless noted
Results filed as inconclusive are left out. Calls of active or inactive are those of the source. Calls follow the shape of the dose curve; as a rule, active = well fitted curve in either direction with a large enough effect (not every such curve was filed as active); inconclusive = small, poorly fitted or top-dose-only effect, or another doubt; inactive = flat fitted curve, though single readings scatter.
Classes used: active, inactive

compound | group-label
CN(C)CCCSc1nc2ccccc2[nH]1 | inactive
C/C(=N\NC(=O)c1ccncc1)c1ccc2ccccc2c1O | inactive
CC(C)C(O)(C(C)C)C(C)C | inactive
CCCCn1cnc2c(SC)ncnc21 | inactive
c1ccc(CO[C@H]2NCCN2Cc2ccccc2)cc1 | inactive
COC(=O)N1CCC2(CCCN(Cc3cc(C(F)(F)F)cc(C(F)(F)F)c3)C2)CC1 | inactive
COc1ccc(Br)c2c1C[C@H](C(=O)O)CC2 | inactive
C[N+](C)(C)c1nc(N)nc2c1ncn2[C@H]1O[C@@H](CO)[C@@H](O)[C@H]1O | inactive
C(CCc1nnc2c(n1)CCCC2)Cc1nnc2c(n1)CCCC2 | inactive
CC(C)[C@H](N=Cc1ccccc1O)C(=O)O | inactive
COc1ccc(C(=O)N2CCC3(CCCN(C(=O)Nc4cccc(F)c4)C3)CC2)cc1 | inactive
O=C1CN2CCN(CC2)CC(=O)Nc2ccc(cc2)S(=O)(=O)c2ccc(cc2)NC(=O)CN2CCN(CC2)CC(=O)Nc2ccc(cc2)S(=O)(=O)c2ccc(cc2)N1 | inactive
COc1cc(Cl)c(CC(=O)c2c[nH]c3ccccc23)cc1OC | inactive
COc1ccc(-c2nc3cnc(N4CCNCC4)nc3n(Cc3cccc(OC)c3)c2=O)cc1 | active
Cn1c(=O)c2c(nc(NCCNc3nc4c(c(=O)n(C)c(=O)n4C)n3C)n2C)n(C)c1=O | inactive
N[C@@H](Cc1nn[nH]n1)C(=O)O | inactive
O=S(=O)(O)[C@@H](CO)c1ccccc1 (tested in a mixture with another compound) | inactive
CC(CO)(CO)Nc1ncnc2ccccc12 | inactive
O=c1[nH][nH]c(=S)c(=O)[nH]1 | inactive
N#Cc1c(NC(=O)CCC(=O)O)ccc2ccccc12 | inactive
O=C(O)C[C@H](Cc1ccccc1Cl)C(=O)O | inactive
Oc1c(CN2CCOCC2)ccc(CN2CCOCC2)c1O | inactive
OCCNc1ncnc2c1ncn2[C@@H]1O[C@@H](CO)[C@H](O)[C@@H]1O | inactive
Cc1ccc(C(N)=Nc2ccccc2)cc1 | inactive
